- study-system: FAST-R52K (Fluorescence-Activating and Absorption-Shifting Tag) (Halorhodospira halophila, UniProt P16113, R52K/C69G/Y94W/T95M/F96I/D97P/Y98T/Q99S/M100R)
- Sequence (P16113 whole entry R52K/C69G/Y94W/T95M/F96I/D97P/Y98T/Q99S/M100R): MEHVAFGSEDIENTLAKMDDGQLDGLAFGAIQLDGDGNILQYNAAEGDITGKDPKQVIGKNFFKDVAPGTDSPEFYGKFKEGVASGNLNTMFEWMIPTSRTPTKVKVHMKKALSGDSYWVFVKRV
- protocol-notes: spectrofluorometric titration of purified protein
Provide the recorded pKd for the entries that follow.
In simple prose, pKd is minus the logarithm base ten of a concentration in moles per litre.

[Q] Specify measured pKd for COc1cc(/C=C2\N=C(C(F)(F)F)N(C)C2=O)c(OC)cc1O [25DOM-HBI-2T] .
[A] 6.36

[Q] Report pKd, nothing else, for this compound: COc1cc(/C=C2\SC(=S)NC2=O)c(OC)cc1O [HBR-DOM2]
[A] 7.46

[Q] Specify pKd for Cc1cc(/C=C2\SC(=S)NC2=O)c(C)cc1O [HBR-2,5-DM] and stop.
[A] 7.34

====

- study-system: FAST-F62L (Fluorescence-Activating and Absorption-Shifting Tag) (Halorhodospira halophila, UniProt P16113, F62L/C69G/Y94W/T95M/F96I/D97P/Y98T/Q99S/M100R)
- Construct: gene pyp
- Sequence (P16113 whole entry F62L/C69G/Y94W/T95M/F96I/D97P/Y98T/Q99S/M100R): as the sequence (P16113 whole entry R52K/C69G/Y94W/T95M/F96I/D97P/Y98T/Q99S/M100R) above, with K52R, F62L counted along it
- protocol-notes: spectrofluorometric titration of purified protein
- Type: binding
test-readout: Kd
Report as: number unit

[Q] Identify measured Kd corresponding to `COc1cc(/C=C2\SC(=S)NC2=O)c(OC)cc1O`
[A] 36 nM

====

- study-system: FAST-P68K (Fluorescence-Activating and Absorption-Shifting Tag) (Halorhodospira halophila, UniProt P16113, P68K/C69G/Y94W/T95M/F96I/D97P/Y98T/Q99S/M100R)
- Sequence (P16113 whole entry P68K/C69G/Y94W/T95M/F96I/D97P/Y98T/Q99S/M100R): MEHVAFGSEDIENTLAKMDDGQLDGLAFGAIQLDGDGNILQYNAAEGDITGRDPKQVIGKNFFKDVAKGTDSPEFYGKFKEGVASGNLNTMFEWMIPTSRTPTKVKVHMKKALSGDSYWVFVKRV
- protocol-notes: spectrofluorometric titration of purified protein
Give pKd for every item shown.
The value called pKd is obtained by taking minus log10 of the concentration in mol/L.

[Q] Supply recorded pKd for `COc1cc(/C=C2\SC(=S)NC2=O)c(OC)cc1O` here.
[A] 7.52

[Q] Report measured pKd; entry is `Cc1cc(/C=C2\SC(=S)NC2=O)c(C)cc1O`
[A] 7.08

[Q] Fill in reported pKd for this entry: `COc1cc(/C=C2\N=C(C(F)(F)F)N(C)C2=O)c(OC)cc1O`
[A] 6.47
